# stated conditions: in acetonitrile, 288.15 K

{"smiles text": "O=C1CCc2cc(OCCCCc3nnnn3C3CCCCC3)ccc2N1", "solubility (mole fraction)": 0.000935}

----------
# stated conditions: in methanol, 278.15 K
measure name: solubility (mole fraction)

{"smiles text": "O=C1CCc2cc(OCCCCc3nnnn3C3CCCCC3)ccc2N1", "observed result": 0.00041}

----------
# stated conditions: in n-butanol, 303.15 K

{"smiles text": "O=C1CCc2cc(OCCCCc3nnnn3C3CCCCC3)ccc2N1", "solubility (mole fraction)": 0.00222}

----------
# stated conditions: in 2-butanone, 278.15 K

{"smiles text": "O=C1CCc2cc(OCCCCc3nnnn3C3CCCCC3)ccc2N1", "solubility (mole fraction)": 0.00345}

----------
# stated conditions: in isopropanol, 273.15 K
measure name: solubility (mole fraction)

{"smiles text": "O=C1CCc2cc(OCCCCc3nnnn3C3CCCCC3)ccc2N1", "observed result": "8.4e-05"}

----------
# stated conditions: in isopropanol, 308.15 K

{"smiles text": "O=C1CCc2cc(OCCCCc3nnnn3C3CCCCC3)ccc2N1", "solubility (mole fraction)": 0.000833}

----------
# stated conditions: in isopropanol, 313.15 K
measure name: solubility (mole fraction)

{"smiles text": "O=C1CCc2cc(OCCCCc3nnnn3C3CCCCC3)ccc2N1", "measure name": "solubility (mole fraction)", "observed result": 0.000981}

----------
# stated conditions: in ethyl acetate, 293.15 K

{"smiles text": "O=C1CCc2cc(OCCCCc3nnnn3C3CCCCC3)ccc2N1", "solubility (mole fraction)": 0.000556}

----------
# stated conditions: in methanol, 298.15 K

{"smiles text": "O=C1CCc2cc(OCCCCc3nnnn3C3CCCCC3)ccc2N1", "solubility (mole fraction)": 0.00117}

----------
# stated conditions: in n-propanol, 293.15 K
measure name: solubility (mole fraction)

{"smiles text": "O=C1CCc2cc(OCCCCc3nnnn3C3CCCCC3)ccc2N1", "measure name": "solubility (mole fraction)", "observed result": 0.000813}

----------
# stated conditions: in acetone, 293.15 K
measure name: solubility (mole fraction)

{"smiles text": "O=C1CCc2cc(OCCCCc3nnnn3C3CCCCC3)ccc2N1", "measure name": "solubility (mole fraction)", "observed result": 0.00332}

----------
# stated conditions: in isopropanol, 283.15 K
measure name: solubility (mole fraction)

{"smiles text": "O=C1CCc2cc(OCCCCc3nnnn3C3CCCCC3)ccc2N1", "observed result": 0.000233}

----------
# stated conditions: in n-propanol, 308.15 K
measure name: solubility (mole fraction)

{"smiles text": "O=C1CCc2cc(OCCCCc3nnnn3C3CCCCC3)ccc2N1", "observed result": 0.00136}

----------
# stated conditions: in methanol, 288.15 K

{"smiles text": "O=C1CCc2cc(OCCCCc3nnnn3C3CCCCC3)ccc2N1", "solubility (mole fraction)": 0.000754}

----------
# stated conditions: in n-butanol, 288.15 K

{"smiles text": "O=C1CCc2cc(OCCCCc3nnnn3C3CCCCC3)ccc2N1", "solubility (mole fraction)": 0.00119}

----------
# stated conditions: in 2-butanone, 313.15 K

{"smiles text": "O=C1CCc2cc(OCCCCc3nnnn3C3CCCCC3)ccc2N1", "solubility (mole fraction)": 0.00881}

----------
# stated conditions: in n-butanol, 273.15 K

{"smiles text": "O=C1CCc2cc(OCCCCc3nnnn3C3CCCCC3)ccc2N1", "solubility (mole fraction)": 0.000437}

Source of measurements: BigSolDB 2.1
